Test Details: physchem
Test Context: amorphous solid storage
Value Type: remaining at 240 h

// query remaining at 240 h value for entry C[C@@H](O)[C@H]1C(=O)N2C(C(=O)[O-])=C(SC3Cn4cnc[n+]4C3)[C@H](C)[C@H]12 (stereo partly shown) [amorphous form]
~40%
